Quick list: inhibition per entry.
- assay system: Sentrin-specific protease 8 (Homo sapiens) (UniProt Q96LD8)
- Sequence (Q96LD8 whole entry, looked up): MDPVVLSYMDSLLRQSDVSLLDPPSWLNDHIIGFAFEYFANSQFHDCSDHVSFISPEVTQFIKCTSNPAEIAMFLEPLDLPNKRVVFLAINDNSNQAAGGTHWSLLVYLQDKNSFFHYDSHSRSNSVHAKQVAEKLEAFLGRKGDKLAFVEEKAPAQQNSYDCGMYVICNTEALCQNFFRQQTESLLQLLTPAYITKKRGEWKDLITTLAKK
- experimental protocol: blockers of human SENP8 peptidase activity – biochemical, luminescence, primary screen (AID 2540)
- cond: purified SENP8, Z-RLRGG-aminoluciferin cleavage, at 10 µM, hits give high values
Hit rate of the full screen: of about 330,000 compounds, about 4,100 (1.2%) were called active. The sample holds actives, similar compounds and a random draw of the others, so the mix is not that of the screen.

compound	unit symbol	inhibition
Brc1ccc(-c2nnc(-c3ccccc3)o2)o1	%	35.5
Cc1ccc(-c2cn(S(=O)(=O)c3cccc([N+](=O)[O-])c3)nc2N)cc1	%	-7.7
O=C(Nc1ccc(F)cc1)c1cc2c(s1)CCCC2	%	90.8
O=C(Nc1ccccc1C(F)(F)F)N1CCCC1c1cccnc1 (stereo unspecified)	%	1.35
N#Cc1ccc(OCC(=O)NC(=O)NC2CCS(=O)(=O)C2)cc1 (stereo unspecified)	%	0.761
Nc1nonc1-c1noc(-c2ccc(Br)o2)n1	%	-7.25
CCOCC(=O)Nc1ncc(S(=O)(=O)c2ccc([N+](=O)[O-])cc2)s1	%	1.6
c1ccc(-n2nc3ccccc3n2)cc1	%	-19.2
Cc1ccccc1SCC(=O)OCC(=O)N1CC(=O)Nc2ccccc21	%	4.24
Cc1ccc(-n2cc3ccc([N+](=O)[O-])cc3n2)cc1	%	68.6
O=C(COc1ccc2c(c1)CCC2)N1CCN(c2ccc(F)cc2)CC1	%	-17.5
